- Measured on: T1, Atg8 (1-116) K26P (S. cerevisiae, UniProt P38182 1-116, K26P)
- T1 sequence: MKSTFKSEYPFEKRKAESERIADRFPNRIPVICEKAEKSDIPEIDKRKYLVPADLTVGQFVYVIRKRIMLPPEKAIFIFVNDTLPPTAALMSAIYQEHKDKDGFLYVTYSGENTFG
- Assay comment: ITC
Measured property: pKd
pKd is defined as minus the log10 of a concentration measured in mol/L.

Past entries and their recorded results:
Binder: EFPNDYDFAEDILDET [Atg40^237–252 M245A peptide]
Numeric value: 4.66

Binder: TSTEAPNDYDFMEDILDET [Atg40 peptide F238A]
Numeric value: 5.37

// next entry
Which measured pKd value corresponds to TSTEFPNDADFMEDILDET [Atg40 peptide Y242A] ?
4.49
